Every entry's value here was drawn from patent US8431704B2.

# Assay Target: P2X7 (Homo sapiens, UniProt Q99572)
# Construct: endogenous in cells; host or cells: THP-1 human monocytic cell line
# Assay Comment: THP-1 YoPro uptake assay (BzATP-stimulated Yo-Pro-1 uptake)
# Type: cell-based
# Run Conditions: Table F-10, THP-1 cells, read-out: mean pIC50 values for P2X7 antagonism (converted)
Test Readout: IC50 (nM)

A selection of reference data follows.
O=C(NCC(c1cnc(C(F)(F)F)nc1)N1CCOCC1)c1c(Cl)ccc2nc(N3CCC(C(=O)O)CC3)ccc12 (stereo not shown) = 117
O=C(NCC(c1cnc(C(F)(F)F)nc1)N1CCOCC1)c1c(Cl)ccc2nc(NCC3CCCO3)ccc12 (stereo not shown) = 100000
O=C(NCC(c1cnc(C(F)(F)F)nc1)N1CCOCC1)c1c(Cl)ccc2nc(N3CCC(c4n[nH]c(=O)[nH]4)CC3)ccc12 (stereo not shown) = 23.4
N[C@@H]1CCCN(c2ccc3c(C(=O)NCC(c4cnc(C(F)(F)F)nc4)N4CCOCC4)c(Cl)ccc3n2)C1 (stereo partly shown) = 5.13
CNCCCN(C)c1ccc2c(C(=O)NCC(c3cnc(C(F)(F)F)nc3)N3CCOCC3)c(Cl)ccc2n1 (stereo not shown) = 11.5

a: O=C(NCC(c1cnc(C(F)(F)F)nc1)N1CCC(F)(F)CC1)c1c(Cl)ccc2nc(NC3CCOCC3)ccc12 (stereo not shown)
b: O=C(NCC(c1cnc(C(F)(F)F)nc1)N1CCOCC1)c1c(Cl)ccc2nc(N3CCOCC3)ccc12 (stereo not shown)
c: Cc1ccccc1CNc1ccc2c(C(=O)NCC(c3cnc(C(F)(F)F)nc3)N3CCOCC3)c(Cl)ccc2n1 (stereo not shown)
d: N[C@H]1CCCN(c2ccc3c(C(=O)NCC(c4cnc(C(F)(F)F)nc4)N4CCC(F)(F)CC4)c(Cl)ccc3n2)C1 (stereo partly shown)
e: CN1CCN(c2ccc3c(C(=O)NCC(c4cnc(C(F)(F)F)nc4)N4CCOCC4)c(Cl)ccc3n2)CC1 (stereo not shown)
QUERY: // sort entries: IC50, high to low A ranking is expressed here by listing the labels in the requested order.
RESULT: c, a, b, e, d
(c: 155 nM, a: 22.4 nM, b: 13.8 nM, e: 5.13 nM, d: 2.24 nM)

* * *

# Assay Target: hP2X7 (Homo sapiens)
# Construct: expressed in transfected cells; host or cells: 1321N1 astrocytoma cells
# Assay Comment: P2X7 antagonism: ligand-induced Ca2+ flux in 1321N1 astrocytoma cells overexpressing hP2X7
# Type: cell-based
# Run Conditions: pIC50 = -log(IC50), read-out: hP2RX7pIC50 (mean pIC50 values) (converted)
Test Readout: IC50 (µM)

O=C(NCC(c1cnc(C(F)(F)F)nc1)N1CCC(F)(F)CC1)c1cccc2nc(N3CCC(O)C3)ccc12 (stereo not shown) = 0.049

P: CN1CCN(c2ccc3c(C(=O)NCC(c4cnc(C(F)(F)F)nc4)N4CCOCC4)cccc3n2)CC1 (stereo not shown)
Q: O=C(NCC(c1cnc(N2CCNCC2)nc1)N1CCC(F)(F)CC1)c1cccc2nc(N3CCCC3)ccc12 (stereo not shown)
QUERY: Between P and Q , whose recorded IC50 is greater? Identify your pick by its label.
RESULT: Q

1: O=C(NCC(c1cnc(N2CCCC2)nc1)N1CCOCC1)c1cccc2nc(NC3CC3)ccc12 (stereo not shown)
2: O=C(NCC(c1cncnc1)N1CCC(F)(F)CC1)c1cccc2nc(N3CCCC3)ccc12 (stereo not shown)
3: O=C(NCC(c1ccc(C(F)(F)F)nc1)N1CCC(F)(F)CC1)c1ccc2ccccc2n1 (stereo not shown)
QUERY: Give the ascending ranking of the items by reported IC50. A ranking is expressed here by listing the labels in the requested order.
RESULT: 2, 1, 3
(2: 0.0457 µM, 1: 0.0977 µM, 3: 0.178 µM)

P: NC1CCN(c2ccc3c(C(=O)NCC(c4cnc(C(F)(F)F)nc4)N4CCOCC4)cccc3n2)CC1 (stereo not shown)
Q: CCOc1ncc(C(CNC(=O)c2cccc3nc(N4CCCC4)ccc23)N2CCOCC2)cn1 (stereo not shown)
QUERY: Lab note: check whether P or Q has the lower measured IC50. Identify your pick by its label.
RESULT: Q

I: CC(C)Oc1ncc(C(CNC(=O)c2cccc3nc(NC4CC4)ccc23)N2CCOCC2)cn1 (stereo not shown)
II: COc1ncc(C(CNC(=O)c2cccc3nc(N4CCCC4)ccc23)N2CCC(F)(F)CC2)cn1 (stereo not shown)
QUERY: Between I and II , whose recorded IC50 is greater? Identify your pick by its label.
RESULT: I

* * *

# Assay Target: hP2X7 (Homo sapiens, UniProt Q99572)
# Construct: expressed in transfected cells; host or cells: 1321N1 astrocytoma cells
# Sequence (Q99572 whole entry): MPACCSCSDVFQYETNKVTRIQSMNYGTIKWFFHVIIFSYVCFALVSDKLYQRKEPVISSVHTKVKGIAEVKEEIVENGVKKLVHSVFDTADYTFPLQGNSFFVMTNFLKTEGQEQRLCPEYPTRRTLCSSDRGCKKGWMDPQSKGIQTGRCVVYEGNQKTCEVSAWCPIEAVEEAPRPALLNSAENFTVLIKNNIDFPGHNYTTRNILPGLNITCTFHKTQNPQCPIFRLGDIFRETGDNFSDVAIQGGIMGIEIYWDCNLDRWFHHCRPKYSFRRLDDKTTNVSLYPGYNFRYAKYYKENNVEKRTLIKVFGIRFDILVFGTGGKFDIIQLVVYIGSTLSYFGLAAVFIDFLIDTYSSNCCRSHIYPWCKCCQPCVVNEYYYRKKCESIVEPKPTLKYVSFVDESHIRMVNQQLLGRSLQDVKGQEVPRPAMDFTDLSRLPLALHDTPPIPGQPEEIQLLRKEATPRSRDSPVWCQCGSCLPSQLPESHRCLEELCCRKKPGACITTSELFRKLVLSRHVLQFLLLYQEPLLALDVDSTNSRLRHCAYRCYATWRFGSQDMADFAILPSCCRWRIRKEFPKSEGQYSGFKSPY
# Assay Comment: P2X7 antagonism: ligand-induced Ca2+ flux in 1321N1 astrocytoma cells overexpressing hP2X7
# Type: cell-based
# Run Conditions: pIC50 = -log(IC50), read-out: hP2RX7pIC50 (mean pIC50 values) (converted)
Test Readout: IC50 (µM)

CC(C)N1CCN(c2ccc3c(C(=O)NCC(c4cnc(N)nc4)N4CCC(F)(F)CC4)cccc3n2)CC1 (stereo not shown) = 0.0813
O=C(NCC(c1cnc(OCC2CC2)nc1)N1CCC(F)(F)CC1)c1cccc2nc(N3CCCC3)ccc12 (stereo not shown) = 0.0282

a: O=C(NCC(c1ccc(C(F)(F)F)nc1)N1CCC(F)(F)CC1)c1cccc2ncccc12 (single isomer, unassigned) [Compound 10]
b: CC(C)N1CCN(c2ccc3c(C(=O)NCC(c4cnc(N5CCOCC5)nc4)N4CCC(F)(F)CC4)cccc3n2)CC1 (stereo not shown)
c: O=C(NC[C@H](c1cnc(C(F)(F)F)nc1)N1CCC(F)(F)CC1)c1cccc2nc(N3CCNCC3)ccc12
d: CN(C)c1ncc(C(CNC(=O)c2cccc3nc(N4CCCC4)ccc23)N2CCOCC2)cn1 (stereo not shown)
QUERY: // sort entries: IC50, high to low A ranking is expressed here by listing the labels in the requested order.
RESULT: d, b, a, c
(d: 0.316 µM, b: 0.0676 µM, a: 0.0437 µM, c: 0.0269 µM)

* * *

# Assay Target: hP2X7 (Homo sapiens)
# Construct: expressed in transfected cells; host or cells: 1321N1 astrocytoma cells
# Assay Comment: P2X7 antagonism: ligand-induced Ca2+ flux in 1321N1 astrocytoma cells overexpressing hP2X7
# Format: cell-based
# Run Conditions: pIC50 = -log(IC50), read-out: hP2RX7pIC50 (mean pIC50 values) (converted)
Test Readout: IC50 (nM)

A selection of reference data follows.
Cc1ncc(C(CNC(=O)c2cccc3nc(N4CCCCCC4)ccc23)N2CCOCC2)cn1 (stereo not shown) = 89.1
O=C(NCC(c1cnc(-c2ccccc2)nc1)N1CCC(F)(F)CC1)c1cccc2nc(N3CCOCC3)ccc12 (stereo not shown) = 64.6

I: O=C(NCC(c1cncnc1)N1CCC(F)(F)CC1)c1cccc2nc(NCC3CC3)ccc12 (stereo not shown)
II: Cc1ncc(C(CNC(=O)c2cccc3nc(N4CCN(C(C)C)CC4)ccc23)N2CCOCC2)cn1 (stereo not shown)
QUERY: Between I and II , whose recorded IC50 is greater? Identify your pick by its label.
RESULT: II
(II: 162 nM, I: 79.4 nM)

* * *

# Assay Target: hP2X7 (Homo sapiens, UniProt Q99572)
# Construct: expressed in transfected cells; host or cells: 1321N1 astrocytoma cells
# Assay Comment: P2X7 antagonism: ligand-induced Ca2+ flux in 1321N1 astrocytoma cells overexpressing hP2X7
# Assay type: cell-based
# Run Conditions: pIC50 = -log(IC50), read-out: hP2RX7pIC50 (mean pIC50 values) (converted)
Test Readout: IC50 (nM)

1: CN(C)c1ncc(C(CNC(=O)c2cccc3nc(NCC4CC4)ccc23)N2CCC(F)(F)CC2)cn1 (stereo not shown)
2: O=C(NCC(c1cnc(C(F)(F)F)nc1)N1CCOCC1)c1cccc2nc(N3CCC(O)C3)ccc12 (stereo not shown)
3: CC(C)(C)OC(=O)N1CCN(c2ccc3c(C(=O)NCC(c4cnc(C(F)(F)F)nc4)N4CCCCCC4)cccc3n2)CC1 (stereo not shown)
QUERY: Rank the 3 molecules shown above by IC50, smallest number first. A ranking is expressed here by listing the labels in the requested order.
RESULT: 1, 2, 3

A: O=C(NCC(c1cnc(C(F)(F)F)nc1)N1CCC(F)CC1)c1cccc2nc(N3CC(O)C3)ccc12 (stereo not shown)
B: O=C(NCC(c1cnc(C(F)(F)F)nc1)N1CCCOCC1)c1cccc2nc(N3CCOCC3)ccc12 (stereo not shown)
C: CC(C)Oc1ncc(C(CNC(=O)c2cccc3nc(N4CCOCC4)ccc23)N2CCOCC2)cn1 (stereo not shown)
QUERY: Give the ascending ranking of the items by reported IC50. A ranking is expressed here by listing the labels in the requested order.
RESULT: B, A, C

A: CCOc1ncc(C(CNC(=O)c2cccc3nc(N4CCN(C(C)C)CC4)ccc23)N2CCOCC2)cn1 (stereo not shown)
B: CCc1ncc(C(CNC(=O)c2cccc3nc(N4CCCC4)ccc23)N2CCOCC2)cn1 (stereo not shown)
QUERY: Between A and B , whose recorded IC50 is greater? Identify your pick by its label.
RESULT: B
